Biological target: 5-hydroxytryptamine receptor 2C (Homo sapiens, UniProt P28335)
Sequence (P28335 whole entry): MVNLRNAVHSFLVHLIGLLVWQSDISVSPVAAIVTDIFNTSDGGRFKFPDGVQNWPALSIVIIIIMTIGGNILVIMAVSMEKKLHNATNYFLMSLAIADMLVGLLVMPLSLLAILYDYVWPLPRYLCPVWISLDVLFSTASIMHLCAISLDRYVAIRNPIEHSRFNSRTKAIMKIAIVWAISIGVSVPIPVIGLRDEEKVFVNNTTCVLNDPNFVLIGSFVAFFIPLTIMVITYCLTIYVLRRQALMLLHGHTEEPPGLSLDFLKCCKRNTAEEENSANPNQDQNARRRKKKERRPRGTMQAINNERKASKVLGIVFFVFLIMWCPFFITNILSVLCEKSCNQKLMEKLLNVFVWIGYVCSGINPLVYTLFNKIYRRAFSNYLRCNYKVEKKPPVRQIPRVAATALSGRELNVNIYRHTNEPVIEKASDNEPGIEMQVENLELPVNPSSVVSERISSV
Below: a set of entries, each annotated with reported pKi.
Keep it numeric: pKi is minus log10 of the concentration in mol/L.

Would you kindly share the measured pKi for C[C@@H]1CNC[C@@H]2Cc3ccccc3N21 (stereo in doubt; 8) ?
7.66

Would you kindly share the measured pKi for Cc1ccc2c(c1)N1[C@@H](CNC[C@H]1C)C2 ?
8.89

Would you kindly share the measured pKi for Cc1c(Cl)ccc2c1N1CCNC[C@@H]1C2 ?
7.49

Would you kindly share the measured pKi for Cc1ccc2c(c1C)N1[C@H](CNC[C@H]1C)C2 ?
8.02

Would you kindly share the measured pKi for Cc1c(Cl)ccc2c1N1CCNC[C@H]1C2 ?
8.82

Would you kindly share the measured pKi for Cc1cccc2c1N1[C@@H](CNC[C@H]1C)C2 ?
8.59

Would you kindly share the measured pKi for C[C@@H]1CNC[C@H]2Cc3ccc(C(F)(F)F)cc3N21 ?
8.85

Would you kindly share the measured pKi for C[C@@H]1CNC[C@H]2Cc3ccc(CO)cc3N21 ?
7.47

Would you kindly share the measured pKi for Clc1ccc2c(c1)N1CCNCC1C2 (configuration not stated) ?
7.51

Would you kindly share the measured pKi for C[C@@H]1CNC[C@H]2Cc3ccc(C#N)cc3N21 ?
8.42

Would you kindly share the measured pKi for Cc1c(Cl)ccc2c1N1[C@@H](CNC[C@H]1C)C2 ?
9.52

Would you kindly share the measured pKi for C[C@@H]1CNC[C@H]2Cc3ccccc3N21 ?
8.66

Would you kindly share the measured pKi for Cc1c(Cl)ccc2c1N1[C@H](CNC[C@H]1C)C2 ?
8.72

Would you kindly share the measured pKi for C[C@H]1CNC[C@@H]2Cc3ccccc3N21 ?
6.74

Would you kindly share the measured pKi for CC(=O)Nc1ccc2c(c1)N1[C@@H](CNC[C@H]1C)C2 ?
6.17

Would you kindly share the measured pKi for C[C@@H]1CNC[C@@H]2Cc3ccccc3N21 (stereo in doubt; 7) ?
7.89

Would you kindly share the measured pKi for Cc1ccc2c(c1C)N1[C@@H](CNC[C@H]1C)C2 ?
8.77
